System: SK-MEL-2
protocol: NCI tumour cell line growth inhibition, 48 h
Active and inactive are the calls of the source. Rule as the data show it: active = GI50 up to about 1.1 µM and inactive = higher.
Bench note: report the call from active, inactive

Identify the outcome logged in this assay for the compound shown: `O=C1CNc2cc(N3CCN(c4cccc(C(F)(F)F)c4)CC3)ccc2N1`
active

Entry to check: CC(C)C(Br)CCC1=CCC(Br)(Br)C1 (centres undefined)
inactive

Entry to check: `CC(=O)Nc1ncc(Sc2ccccc2C(=O)O)s1`
inactive

Entry to check: C=C(C)[C@@]12C[C@H](OC(=O)[C@H](O)[C@@H](NC(=O)c3ccccc3)c3ccccc3)C(C)=C1[C@@H](OC(C)=O)C(=O)[C@@]1(C)C([C@@H]2OC(=O)c2cc(F)cc(F)c2)C2(OC(C)=O)CO[C@@H]2C[C@@H]1O (some centres undefined)
active

----------
Kindly supply the reported GI50 values for the records listed here.
System: HOP-92
protocol: NCI tumour cell line growth inhibition, 48 h
Activity calls are given as the source filed them. Cut-off read from the data, not from the text of the source: active = GI50 up to about 1.1 µM and inactive = higher.

Any idea what its GI50 is? The compound is CC(C)(Cl)C(Cl)CC/C(CBr)=C(\Cl)CBr (stereo not given)
1.75 µM (inactive)

Entry to check: `CCOC(=O)c1cnc2c(ccc3ncccc32)c1NCCCN(CC)CC`
65.8 µM (inactive)

Entry to check: COc1cccc(/C=C2\CCC(C)(CN(C)C)C2=O)c1 (stereo not given)
> 100 µM (inactive)

Entry to check: N#Cc1cc([N+](=O)[O-])ccc1NC(=O)C(=O)C(C(=O)c1ccc2ccccc2c1)C1OCc2ccccc21 (stereo not given)
7.01 µM (inactive)

Entry to check: `CN(CCc1ccc(Br)cc1)CCN1CCCCC1`
17.7 µM (inactive)

Entry to check: COc1cc(C2SCC(=O)N2c2ccc(-c3ccc(-n4c(-c5ccccc5)nc5ccccc5c4=O)cc3)cc2)ccc1O (stereo not given)
30.9 µM (inactive)

Entry to check: `NNC(=O)CSc1nc2ccccc2c(=O)n1N`
22.5 µM (inactive)

Entry to check: `Cc1cc2c(O)c(c1)CN(CC(=O)O)Cc1cc(C)cc(c1O)CN(CC(=O)O)Cc1cc(C)cc(c1O)CN(CC(=O)O)C2`
64.4 µM (inactive)

Entry to check: `O=c1cc(/N=N/c2ccc(O)cc2)[nH]c(=O)[nH]1`
96.6 µM (inactive)

Entry to check: `CC(C)OC(=O)c1ccc(NCC2=CC(=O)C=CC2=O)cc1Cl`
4.89 µM (inactive)

----------
Tested on: HL-60
protocol: NCI tumour cell line growth inhibition, 48 h
Active and inactive are the calls of the source. No stated cut-off is given here; in the data, active = GI50 up to about 1.1 µM and inactive = higher.
Bench note: report the call from active, inactive

Identify the outcome logged in this assay for the molecule shown: `CCNCCCCNCCCCNCCCCNCCCCNCC`
inactive

Entry to check: `O=C1c2cc(-c3ccccc3)cnc2S(=O)(=O)N1c1ccc(Br)cc1`
inactive

Entry to check: CC[C@H]1CN2CCc3cc(OC)c(OC)cc3[C@@H]2C[C@@H]1C[C@H]1NCCc2c1[nH]c1ccc(O)cc21 [TUBULOSINE]
active

Entry to check: `CC(=O)n1nc(-c2nc3ccccc3nc2Cl)cc1Cl`
inactive

Entry to check: `Cc1nc2c(=O)n(C)c(=O)nc-2n(-c2ccc(Cl)cc2)c1C`
inactive

Entry to check: `O=C1C=CC(=O)c2c(O)c(N3CCN(c4ccccn4)CC3)cc(O)c21`
inactive

Entry to check: C=C1CCC2C(C)(CO)C(O)CCC2(C)C1CC(O)/C(=C/CO)C(=O)O (configuration not stated)
inactive

----------
System: Malme-3M
protocol: NCI tumour cell line growth inhibition, 48 h
The source made the active and inactive calls. Rule as the data show it: active = GI50 up to about 1.1 µM and inactive = higher.
Bench note: report the call from True = active, False = inactive

Identify the outcome logged in this assay for the molecule shown: `CCOC(=O)/C=C(\C(=O)OCC)n1ccc(=O)[nH]c1=O`
False

Entry to check: NC1CC2C3CCC2C1C3=O (configuration not stated)
False

Entry to check: `Cc1cc(C)n2nc3nc(N)c(C#N)c(-c4ccccc4)c3c2n1`
False

Entry to check: `C[n+]1ccc2[nH]c3ccccc3c2c1`
False

Entry to check: `CCOC(=O)/C(C(=O)Nc1cccc(C(F)(F)F)c1)=C(/N)N1CCOCC1`
False

Entry to check: `O=Cc1cc(O)c(O)c(/C=N/n2c3ccccc3c3ccccc32)c1`
False

Entry to check: `COC(=O)C(=O)CC(=O)CCn1[nH]c(=O)c(Cl)c(Cl)c1=O`
False

Entry to check: `C=CCn1c(-c2ccc([N+](=O)[O-])cc2)cs/c1=N\C(P(=O)(O)O)P(=O)(O)O`
False

Entry to check: `C[Si](C)(C)[C@@]1([Se]c2ccccc2)CC[C@@H]1C(=O)c1ccccc1`
False

Entry to check: COC(=O)C1C2CC3C(OC(=O)C31)C2OC(=O)[C@](OC)(c1ccccc1)C(F)(F)F (some centres not stated)
False

Entry to check: `CCS(=O)(=O)Nc1ccc(Nc2c3ccccc3nc3ccccc23)c(OC)c1`
True

Entry to check: `C/C(=N\Nc1nnc(S)n1N)c1c(O)cc(C)oc1=O`
False

Entry to check: CC(C)=CCc1c2c(c3occ(-c4ccc(O)c(O)c4)c(=O)c3c1O)C=CC(C)(C)O2 [POMIFERIN]
False

Entry to check: O=C(N/N=C(\C1=Nc2ccc(Cl)cc2NC1O)C(O)/C=C/c1ccccc1)c1ccncc1 (configuration not stated)
False

Entry to check: `O=C(CCN1CCOCC1)C(=Cc1ccccc1)C(=O)CCN1CCOCC1`
False

Entry to check: COc1ccc(C2NC3=C(CCCC3)C3(C#N)C(=O)N=C(N)C23C#N)cc1 (configuration not stated)
False

Entry to check: `N#CSCc1cccc(Nc2cc(=O)[nH]c(=O)[nH]2)c1`
False

Entry to check: `CC(C)=CCC[C@@H](C)C1=C(Nc2ccccc2)C(=O)C(C)=C(O)C1=O`
False

Entry to check: Cc1cc(C2CC(O)C(CO)O2)c(F)cc1F (configuration not stated)
False

Entry to check: `CCCc1c(O)nc(Nc2nc3ccccc3[nH]2)[nH]c1=O`
False

Entry to check: `CCOC(=O)c1cnc2oc3ccc(O)cc3c2c1C`
False

Entry to check: CC(C)C(Br)CCC1=CCC(Br)(Br)C1 (configuration not stated)
False

----------
Kindly supply the reported GI50 values for the records listed here.
System: SNB-19
protocol: NCI tumour cell line growth inhibition, 48 h
The source made the active and inactive calls. Cut-off read from the data, not from the text of the source: active = GI50 up to about 1.1 µM and inactive = higher.

Any idea what its GI50 is? The compound is CCN(CC)CCCN1CCc2c([nH]c3ccccc23)C1c1cccnc1 (stereo unspecified)
> 100 µM (inactive)

Entry to check: `CN(CCc1ccc(Br)cc1)CCN1CCCCC1`
> 100 µM (inactive)

Entry to check: `O=C1c2ccccc2C(=O)N1CCn1ccc(NC(c2ccccc2)(c2ccccc2)c2ccccc2)nc1=O`
25.2 µM (inactive)

Entry to check: C[C@H](CCC(=O)O)[C@H]1CC[C@H]2[C@@H]3[C@@H](O)C[C@@H]4C[C@H](O)CC[C@]4(C)[C@H]3CC[C@]12C [URSODIOL]
> 100 µM (inactive)

Entry to check: `COc1ccc(-c2cc(-c3ccccc3)nc(N)n2)c(O)c1`
> 82.8 µM (inactive)

Entry to check: `N#CSCc1cccc(Nc2cc(=O)[nH]c(=O)[nH]2)c1`
> 100 µM (inactive)

Entry to check: CC/C(C)=C1\CCC(CN2CCOCC2)C1=O (stereo unspecified)
47.9 µM (inactive)

Entry to check: `O=C1C(=O)N(c2ccc(Cl)c(Cl)c2)C(=O)C(=O)C1c1nc2ccccc2s1`
44 µM (inactive)

Entry to check: CC/C=C\C/C=C\C/C=C\CCCCCCCC(=O)OC(COC(=O)CCCCCCCCCCCCCCCCC)COC1OC(CO)C(O)C(O)C1O (stereo unspecified)
> 25 µM (inactive)

Entry to check: `CCCN(CCC)C(=O)C(=O)c1c(N)[nH]n(-c2ccccc2)c1=O`
> 100 µM (inactive)

Entry to check: `O=Cc1cc([N+](=O)[O-])no1`
92.9 µM (inactive)

Entry to check: `COC(=O)N/N=C(\C)c1sc(-c2nc(C)c(/C(C)=N/NC(=O)OC)s2)nc1C`
> 100 µM (inactive)

Entry to check: COc1ccc(CC2C3=C(CCCC3)CCN2C)cc1 (stereo unspecified)
> 100 µM (inactive)

Entry to check: `CCOC(=O)c1cnc2oc3ccc(O)cc3c2c1C`
> 100 µM (inactive)

Entry to check: `CCOc1cc(C=O)c2c(ccc3ccc(OC)c(OC)c32)c1OC`
> 100 µM (inactive)

Entry to check: `Cc1cc(Cl)nc(NC(=O)CSc2ccc(Cl)cc2)n1`
> 100 µM (inactive)

----------
System: UO-31
protocol: NCI tumour cell line growth inhibition, 48 h
Calls of active or inactive are those of the source. No stated cut-off is given here; in the data, active = GI50 up to about 1.1 µM and inactive = higher.
Kindly supply the reported GI50 values for the records listed here.

Any idea what its GI50 is? The compound is `CCN(CC)c1ccc(/C=C(\C#N)c2nc(N)nc(N3N=C(C)CC3(C)C)n2)cc1`
22.4 µM (inactive)

Entry to check: CC(C)Cc1ccc(C(C)/C=C2\CCC(CN3CCOCC3)C2=O)cc1 (stereo not drawn)
8.73 µM (inactive)

Entry to check: `Cn1c2cccc3nnc4cccc(c4c32)n1C`
> 100 µM (inactive)

Entry to check: `C=CCn1c(-c2ccc([N+](=O)[O-])cc2)cs/c1=N\C(P(=O)(O)O)P(=O)(O)O`
> 100 µM (inactive)

Entry to check: COC(=O)C(Cc1c[nH]c2ccccc12)NC(=O)C(Cc1c[nH]cn1)NC(=O)C1CCC(=O)N1C(=O)OCc1ccccc1 (stereo not drawn)
> 100 µM (inactive)

Entry to check: `Cc1cc(/N=N/c2ccc(/N=N/c3c(O)c(S(=O)(=O)O)cc4cc(S(=O)(=O)O)ccc34)cc2C)ccc1/N=N/c1ccc2cc(S(=O)(=O)O)cc(S(=O)(=O)O)c2c1`
> 100 µM (inactive)

Entry to check: COC(=O)C([C@H]1CC[C@H](OCc2ccccc2)[C@@]1(O)COCc1ccccc1)C(C)(O)CCc1ccccc1 (stereo partly drawn)
10.7 µM (inactive)

Entry to check: C=C(CCOC)CCC1CCCCC(=C)[C@H]1OC(C)=O (stereo partly drawn)
> 100 µM (inactive)

Entry to check: `O=C1CNc2cc(N3CCN(c4cccc(C(F)(F)F)c4)CC3)ccc2N1`
24.7 µM (inactive)

Entry to check: COc1ccc(C2NC3=C(CCCC3)C3(C#N)C(=O)N=C(N)C23C#N)cc1 (stereo not drawn)
> 100 µM (inactive)

Entry to check: COc1ccc(OC2OC(CO)C(OCc3ccccc3)C(OCc3ccccc3)C2OCc2ccccc2)cc1 (stereo not drawn)
41 µM (inactive)

Entry to check: O=C(NC(Cc1ccccc1)P(=O)(O)c1ccccc1)OCc1ccccc1 (stereo not drawn)
> 100 µM (inactive)

Entry to check: `Cc1occc1C(=S)Nc1ccc(Cl)c(C(=O)OC(C(C)C)C(C)C)c1`
5 µM (inactive)
